Taken from patent US5021413A.

Please provide measured IC50 for the entries that follow.
Counter-ions that a name gives are not always drawn.
Output spec: scalar in nM, unitless text.

Inquiry: Provide value of IC50 for this record tested with μ-receptors (Cavia porcellus, UniProt A0ACM8Q262): O=C1C[C@H](C(=O)N2CCCC[C@H]2CN2CCCC2)c2cc(Cl)c(Cl)cc21 [Example 2-E1]
Sequence (A0ACM8Q262 1-400): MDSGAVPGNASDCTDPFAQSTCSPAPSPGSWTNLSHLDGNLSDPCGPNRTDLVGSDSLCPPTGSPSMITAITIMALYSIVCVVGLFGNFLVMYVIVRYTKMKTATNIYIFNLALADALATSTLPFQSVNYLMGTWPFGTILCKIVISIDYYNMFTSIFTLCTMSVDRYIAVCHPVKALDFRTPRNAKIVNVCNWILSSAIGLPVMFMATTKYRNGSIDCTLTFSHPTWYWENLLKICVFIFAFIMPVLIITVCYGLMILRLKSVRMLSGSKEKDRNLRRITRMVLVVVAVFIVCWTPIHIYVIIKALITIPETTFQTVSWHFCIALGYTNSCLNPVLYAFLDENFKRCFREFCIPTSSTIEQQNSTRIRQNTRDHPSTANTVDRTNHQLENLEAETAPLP
Reply text: 232

Inquiry: // fetch μ-receptors (Cavia porcellus, UniProt A0ACM8Q262) IC50 for O=C1CC(C(=O)N2CCCCC2CN2CCCC2)c2cc(Cl)c(Cl)cc21 (centres unmarked)
Reply text: 1070

Inquiry: Query for μ-receptors (Cavia porcellus, UniProt A0ACM8Q262): what IC50 does the record show for O=C1CC(C(=O)N2CCSCC2CN2CCCC2)c2cc(Cl)c(Cl)cc21 (centres unmarked) [Example 36, hydrochloride] ?
Reply text: 1140

Inquiry: Which measured IC50 belongs to O=C1C[C@H](C(=O)N2CCCC[C@H]2CN2CCCC2)c2cc(Cl)c(Cl)cc21 (relative stereo) [Example 4-D1] , tested on μ-receptors (Cavia porcellus, UniProt A0ACM8Q262)?
Reply text: 531

Inquiry: Can you look up IC50 on μ-receptors (Cavia porcellus, UniProt A0ACM8Q262) for O=C([C@H]1CCc2cc(Cl)c(Cl)cc21)N1CCSC[C@@H]1CN1CCCC1 (relative stereo) [Example 41-D1] ?
Reply text: 698
